Cited source for all entries: patent US12258328B2

Target: EGFR del19/T790M/C797S (Homo sapiens, UniProt P00533, C797S/DEL746-750/T790M)
Sequence (P00533 with tags, fused parts or gaps DEL746-750/T790M/C797S): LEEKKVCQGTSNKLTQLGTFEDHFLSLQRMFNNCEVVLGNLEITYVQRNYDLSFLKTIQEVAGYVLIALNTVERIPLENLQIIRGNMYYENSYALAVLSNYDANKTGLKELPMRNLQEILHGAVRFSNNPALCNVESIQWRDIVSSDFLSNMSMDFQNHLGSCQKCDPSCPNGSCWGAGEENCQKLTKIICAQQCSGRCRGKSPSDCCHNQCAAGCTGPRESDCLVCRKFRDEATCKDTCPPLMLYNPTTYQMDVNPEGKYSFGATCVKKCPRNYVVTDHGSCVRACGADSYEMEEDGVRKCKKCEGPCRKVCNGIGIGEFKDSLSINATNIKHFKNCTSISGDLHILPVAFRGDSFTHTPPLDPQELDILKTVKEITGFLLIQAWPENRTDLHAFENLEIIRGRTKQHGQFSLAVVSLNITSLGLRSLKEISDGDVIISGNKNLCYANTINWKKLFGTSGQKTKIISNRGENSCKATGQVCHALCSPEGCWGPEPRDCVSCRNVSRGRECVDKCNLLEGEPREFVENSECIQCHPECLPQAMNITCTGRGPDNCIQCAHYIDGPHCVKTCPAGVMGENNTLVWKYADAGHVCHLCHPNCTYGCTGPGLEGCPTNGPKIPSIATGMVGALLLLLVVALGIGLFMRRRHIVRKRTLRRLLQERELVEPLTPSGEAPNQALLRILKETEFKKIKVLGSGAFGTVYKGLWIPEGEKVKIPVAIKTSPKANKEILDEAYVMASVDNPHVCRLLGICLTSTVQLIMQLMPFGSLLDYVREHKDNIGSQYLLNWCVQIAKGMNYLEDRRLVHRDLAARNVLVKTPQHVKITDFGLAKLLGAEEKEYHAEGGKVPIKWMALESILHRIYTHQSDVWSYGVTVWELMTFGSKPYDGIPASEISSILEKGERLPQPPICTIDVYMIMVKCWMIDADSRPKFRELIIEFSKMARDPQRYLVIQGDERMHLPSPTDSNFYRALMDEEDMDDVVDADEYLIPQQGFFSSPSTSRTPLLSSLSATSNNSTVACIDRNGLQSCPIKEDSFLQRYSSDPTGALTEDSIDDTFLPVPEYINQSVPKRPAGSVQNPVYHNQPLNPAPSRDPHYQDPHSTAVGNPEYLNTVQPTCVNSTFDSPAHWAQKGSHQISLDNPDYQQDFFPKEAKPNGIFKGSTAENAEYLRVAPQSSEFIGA
Experiment: Biochemical EGFR kinase assay (Lance Ultra TR-FRET), triple mutant del19/T790M/C797S
Conditions: ATP at Km; read-out: IC50 del19/T790M/C797S, Km ATP
Answer each item with its documented IC50.
Numeric answer plus unit only.

Examples from the recorded data:
O=S(=O)(C1CC1)n1cc(-c2nccc(Nc3cc(NC4CCC(F)(F)CC4)c(-c4ccc(N5CCC(F)(F)CC5)nn4)cn3)n2)cn1 ... 28.9 nM
O=S(=O)(C1CC1)n1cc(-c2nccc(Nc3cc(N[C@H]4CC[C@@H](CO)CC4)c(-c4cc(NC5CC(F)(F)C5)ccn4)cn3)n2)cn1 ... 3 nM

Enquiry: What is its IC50 for EGFR del19/T790M/C797S (Homo sapiens, UniProt P00533, C797S/DEL746-750/T790M)? Entry: C[C@]1(O)CC[C@@H](Nc2nccc(-c3cnc(Nc4ccnc(-c5cnn(S(=O)(=O)C6CC6)c5)n4)cc3N[C@H]3CC[C@@](C)(O)CC3)n2)CC1
Return: 1 nM
